Assay type: physicochemical
Settings: method [a]: HPLC/LC-MS on reversed phase at pH 2.7, 0.1% formic acid in water / acetonitrile, gradient 10% to 95% acetonitrile
Documented log P across a set of molecules
resultType: log P

>  <molecule>
C#Cc1cnc2ccc(C3=NOC(OC)(C(=O)N(C(C)C)C4CC4)C3)cc2c1 (centres unmarked)

>  <measValue>
3.35[a]

$$$$
>  <molecule>
C#Cc1cnc2ccc(C3=NOC(C)(C(=O)NCCCN(C)C)C3)cc2c1 (racemic)

>  <measValue>
1.11[a]

$$$$
>  <molecule>
C#Cc1cnc2ccc(C3=NOC(C)(C(=O)NCc4cn(C(C)C)nc4C)C3)cc2c1 (centres unmarked)

>  <measValue>
2.34[a]

$$$$
>  <molecule>
CC1(C(=O)NCC(F)(F)F)CC(c2ccc3ncc(Br)cc3c2)=NO1 (centres unmarked)

>  <measValue>
2.84[a]

$$$$
>  <molecule>
CCn1nc(C)c(NC(=O)C2(C)CC(c3ccc4ncc(Br)cc4c3)=NO2)c1C (centres unmarked)

>  <measValue>
2.41[a]

$$$$
>  <molecule>
C#Cc1cnc2ccc(C3=NOC(C)(C(=O)NC(COC)COC)C3)cc2c1 (centres unmarked)

>  <measValue>
2.30[a]

$$$$
>  <molecule>
CC#Cc1cnc2ccc(C3=NOC(C)(C(=O)NC(C)C)C3)cc2c1 (racemic)

>  <measValue>
2.73[a]

$$$$
>  <molecule>
CC1(C(=O)NC2=NCCO2)CC(c2ccc3ncc(Br)cc3c2)=NO1 (centres unmarked)

>  <measValue>
1.71[a]

$$$$
>  <molecule>
COC1C(c2ccc3ncc(Br)cc3c2)=NOC1(C)C(=O)NC(C)C (centres unmarked)

>  <measValue>
2.91[a]

$$$$
>  <molecule>
CCC1(C(=O)NC2CCC2)CC(c2ccc3ncc(Br)cc3c2)=NO1 (centres unmarked)

>  <measValue>
3.31[a]

$$$$
>  <molecule>
C#Cc1cnc2ccc(C3=NOC(C)(C(=O)NC(C)CCCCCC)C3)cc2c1 (racemic)

>  <measValue>
4.19[a]

$$$$
>  <molecule>
C#Cc1cnc2ccc(C3=NOC(OC)(C(=O)NCC(O)CO)C3)cc2c1 (centres unmarked)

>  <measValue>
1.44[a]

$$$$
>  <molecule>
CC(C)NC(=O)C12ON=C(c3ccc4ncc(Br)cc4c3)C1C2C (racemic)

>  <measValue>
3.11[a]

$$$$
>  <molecule>
C#Cc1cnc2ccc(C3=NOC(OC)(C(=O)NC(C)(C)c4cc(C)ccn4)C3)cc2c1 (centres unmarked)

>  <measValue>
1.95[a]

$$$$
>  <molecule>
CCn1cc(CNC(=S)C2(OC)CC(c3ccc4ncc(Br)cc4c3)=NO2)c(C)n1 (centres unmarked)

>  <measValue>
3.15[a]

$$$$
>  <molecule>
CC(C)NC(=O)C1(C)CC(c2ccc3nc(Cl)c(I)cc3c2)=NO1 (centres unmarked)

>  <measValue>
3.50[a]

$$$$
>  <molecule>
CCCOc1cnc2ccc(C3=NOC(C)(C(=O)NC(C)C)C3)cc2c1 (centres unmarked)

>  <measValue>
2.16[a]

$$$$
>  <molecule>
C#Cc1cnc2ccc(C3=NOC(C)(C(=O)NOC(C)C4CC4)C3)cc2c1 (centres unmarked)

>  <measValue>
2.43[a]

$$$$
>  <molecule>
Cc1ncsc1CNC(=O)C1(C)CC(c2ccc3ncc(Br)cc3c2)=NO1 (centres unmarked)

>  <measValue>
2.28[a]

$$$$
>  <molecule>
CCn1cc(CNC(=O)C2(C)CC(c3ccc4ncc(NC(=O)OC(C)(C)C)cc4c3)=NO2)c(C)n1 (centres unmarked)

>  <measValue>
2.44[a]

$$$$

---

Documented % of efficacy (protection) across a set of compounds
Tested on: Septoria tritici
Assay: In vivo preventive test on Septoria tritici (leaf spot on wheat)
Details: 500 ppm; wheat plants sprayed 24 hours before contamination; grading 21 to 28 days after contamination vs control plants
resultType: % of efficacy (protection) (%)

>  <compound>
CNC(=O)C1(C)CC(c2ccc3ncc(Br)cc3c2)=NO1 (stereo not shown)

>  <resultType>
% of efficacy (protection)

>  <measValue>
100

$$$$
>  <compound>
CCC(C)NC(=O)C1(C)CC(c2cc3cc(Br)cnc3c(F)c2F)=NO1 (stereo not shown)

>  <resultType>
% of efficacy (protection)

>  <measValue>
83

$$$$
>  <compound>
C#Cc1cnc2ccc(C3=NOC(C)(C(=O)NC4CC4C4CC4)C3)cc2c1 (stereo not shown)

>  <resultType>
% of efficacy (protection)

>  <measValue>
100

$$$$
>  <compound>
CC1(C(=O)NCCCOCC(F)(F)F)CC(c2ccc3ncc(Br)cc3c2)=NO1 (stereo not shown)

>  <resultType>
% of efficacy (protection)

>  <measValue>
78

$$$$

---

System: Septoria tritici
Experiment: In vivo preventive test on Septoria tritici (leaf spot on wheat)
Conditions: 500 ppm; wheat plants sprayed 24 hours before contamination; grading 21 to 28 days after contamination vs control plants
Documented % of efficacy (protection) across a set of molecules

>  <molecule>
CC(NC(=O)C1(C)CC(c2ccc3ncc(Br)cc3c2)=NO1)c1ccncc1 (centres unmarked)

>  <% of efficacy (protection), %>
78

$$$$
>  <molecule>
CCn1cc(CNC(=O)C2(C)CC(c3ccc4ncc(OC)cc4c3)=NO2)c(C)n1 (centres unmarked)

>  <% of efficacy (protection), %>
100

$$$$
>  <molecule>
COC1(C(=O)NC(C)C)CC(c2cc(Cl)c3ncc(Br)cc3c2)=NO1 (centres unmarked)

>  <% of efficacy (protection), %>
100

$$$$
>  <molecule>
C#Cc1cnc2ccc(C3=NOC(C)(C(=O)NCC)C3)cc2c1 (centres unmarked)

>  <% of efficacy (protection), %>
97

$$$$
>  <molecule>
C#Cc1cnc2ccc(C3=NOC(C)(C(=O)NC(C)c4cccc5ccccc45)C3)cc2c1 (centres unmarked)

>  <% of efficacy (protection), %>
78

$$$$
>  <molecule>
Cc1cnc2ccc(C3=NOC(C)(C(=O)NC(C)C)C3)cc2c1 (centres unmarked)

>  <% of efficacy (protection), %>
98

$$$$
>  <molecule>
CCn1cc(CNC(=O)C2(C)CC(c3cc4cc(Br)cnc4c(F)c3F)=NO2)c(C)n1 (centres unmarked)

>  <% of efficacy (protection), %>
100

$$$$
>  <molecule>
CCC1(C(=O)NC2CC2)CC(c2ccc3ncc(Br)cc3c2)=NO1 (centres unmarked)

>  <% of efficacy (protection), %>
97

$$$$
>  <molecule>
COC1(C(=O)NCC2COC(C)(C)O2)CC(c2cc(Cl)c3ncc(Br)cc3c2)=NO1 (centres unmarked)

>  <% of efficacy (protection), %>
100

$$$$
>  <molecule>
C#Cc1cnc2ccc(C3=NOC(CC)(C(=O)NC(C)C)C3)cc2c1 (racemic)

>  <% of efficacy (protection), %>
100

$$$$
>  <molecule>
CC(C)NC(=O)C1(C)CC(c2cc(Cl)c3ncc(Br)cc3c2)=NO1 (centres unmarked)

>  <% of efficacy (protection), %>
100

$$$$

---

Type: physicochemical
Conditions: method [a]: HPLC/LC-MS on reversed phase at pH 2.7, 0.1% formic acid in water / acetonitrile, gradient 10% to 95% acetonitrile
resultType: log P

>  <compound>
CCOCCCNC(=O)C12CC1C(c1ccc3ncc(Br)cc3c1)=NO2 (racemic) [compound 401]

>  <measValue>
2.84[a]

$$$$
>  <compound>
CC(C)NC(=O)C1(C)CC(c2ccc3nc(C#N)c(I)cc3c2)=NO1 (stereo not shown) [compound 510]

>  <measValue>
3.04[a]

$$$$
>  <compound>
CCCn1cc(CNC(=O)C2(C)CC(c3ccc4ncc(I)cc4c3)=NO2)c(C)n1 (stereo not shown) [compound 455]

>  <measValue>
2.75[a]

$$$$
>  <compound>
C#Cc1cnc2ccc(C3=NOC(C)(C(=O)NC(C)COC)C3)cc2c1 (racemic) [compound 365]

>  <measValue>
2.26[a]

$$$$
>  <compound>
C#Cc1cnc2ccc(C3=NOC(CC)(C(=O)NCC4COC(C)(C)O4)C3)cc2c1 (mixture of isomers) [compound 441]

>  <measValue>
2.66[a]

$$$$
>  <compound>
CC(C)NC(=O)C1ON=C(c2ccc3ncc(Br)cc3c2)C1C (racemic) [compound 376]

>  <measValue>
2.64[a]

$$$$
>  <compound>
C#Cc1cnc2ccc(C3=NOC(OC)(C(=O)NCCCOCC)C3)cc2c1 (stereo not shown) [compound 408]

>  <measValue>
2.39[a]

$$$$
>  <compound>
CCOCCCNC(=O)C1(CC2CC2)CC(c2ccc3ncc(Br)cc3c2)=NO1 (racemic) [compound 426]

>  <measValue>
3.55[a]

$$$$
>  <compound>
CCn1cc(CNC(=O)C2(C)CC(c3ccc4ncc(C(F)=CC(F)(F)F)cc4c3)=NO2)c(C)n1 (stereo not shown) [compound 405]

>  <measValue>
2.84[a]

$$$$
>  <compound>
CC1(C)OCC(CNC(=O)C23CC2C(c2ccc4ncc(Br)cc4c2)=NO3)O1 (racemic) [compound 400]

>  <measValue>
2.75[a]

$$$$
>  <compound>
C#Cc1cnc2ccc(C3=NOC(C)(C(=O)NC4CCOCC4C)C3)cc2c1 (stereo not shown) [compound 470]

>  <measValue>
2.21[a]

$$$$
>  <compound>
CN(CC(NC(=O)C1(C)CC(c2ccc3ncc(Br)cc3c2)=NO1)C1CC1)c1ccccc1 (stereo not shown) [compound 362]

>  <measValue>
4.19[a]

$$$$
>  <compound>
C#Cc1cnc2ccc(C3=NOC(OC)(C(=O)NC(C)(C)c4ccon4)C3)cc2c1 (stereo not shown) [compound 509]

>  <measValue>
2.52[a]

$$$$
>  <compound>
CCOC1C(c2ccc3ncc(Br)cc3c2)=NOC1(C)C(=O)NC(C)C (racemic) [compound 393]

>  <measValue>
3.35[a]

$$$$
>  <compound>
CCOCCCNC(=O)C1(C)CC(c2ccc3ncc(I)cc3c2)=NO1 (racemic) [compound 456]

>  <measValue>
2.86[a]

$$$$
>  <compound>
C#Cc1cnc2ccc(C3=NOC(C)(C(=O)NC(C)(C)/C=N/OC)C3)cc2c1 (stereo not shown) [compound 463]

>  <measValue>
2.92[a]

$$$$
>  <compound>
C#Cc1cnc2ccc(C3=NOC(OC)(C(=O)N(CC(F)F)C(C)C)C3)cc2c1 (stereo not shown) [compound 469]

>  <measValue>
3.60[a]

$$$$
>  <compound>
CCCn1cc(CNC(=O)C2(OC)CC(c3ccc4ncc(I)cc4c3)=NO2)c(C)n1 (racemic) [compound 449]

>  <measValue>
2.73[a]

$$$$
>  <compound>
C#Cc1cnc2ccc(C3=NOC(OC)(C(=O)NC4CCC4)C3)cc2c1 (racemic) [compound 429]

>  <measValue>
2.54[a]

$$$$
>  <compound>
C#Cc1cnc2ccc(C3=NOC(OC)(C(=O)NCc4cn(CC)nc4C)C3)cc2c1 (racemic) [compound 442]

>  <measValue>
2.14[a]

$$$$
>  <compound>
COc1nc2ccc(C3=NOC(C)(C(=O)NC(C)C)C3)cc2cc1I (stereo not shown) [compound 485]

>  <measValue>
3.72[a]

$$$$
>  <compound>
COC1(C(=O)NCC2COC(C)(C)O2)CC(c2ccc3ncc(I)cc3c2)=NO1 (stereo not shown) [compound 483]

>  <measValue>
2.73[a]

$$$$
>  <compound>
COC1(C(=S)NC(C)C)CC(c2ccc3ncc(Br)cc3c2)=NO1 (stereo not shown) [compound 410]

>  <measValue>
3.69[a]

$$$$
>  <compound>
CCCCCCC(C)NC(=O)C1(C)CC(c2ccc3ncc(Br)cc3c2)=NO1 (racemic) [compound 370]

>  <measValue>
4.73[a]

$$$$
>  <compound>
C#Cc1cc2cc(C3=NOC(C)(C(=O)NCc4cn(CC)nc4C)C3)ccc2nc1OC (stereo not shown) [compound 490]

>  <measValue>
2.55[a]

$$$$
